test system: OVCAR-8 ovarian; assay: NCI tumour cell line growth inhibition, 48 h
Classification field: enter class 1 for TGI values not below 20 µM, class 0 for values below it.

O=C1c2ccccc2C(=O)c2c(NCCCNCCO)ccc(NCCCNCCO)c21 | class 1

# input Given the entry CC(CCC(=O)O)[C@H]1CCC2[C@H]3C(CC[C@@]21C)[C@@]1(C)CCC(O)C[C@H]1C[C@@H]3O (stereo partly drawn) , answer whether its TGI meets or surpasses 20 µM.
# output class 1

# input Param item: O=C(c1cc(O)ccc1O)c1ccccc1C(Cl)(Cl)Cl
# output class 1

----------
tested on: U251 CNS; assay: NCI tumour cell line growth inhibition, 48 h
REPORTED_ENDPOINT: TGI

Known TGI results, listed for orientation:
NCCCCCS(=O)(=O)O | > 100 µM
COc1cc(-c2cc(-c3ccc(N(C)C)cc3)nc(N3CCOCC3)c2C#N)cc(OC)c1OC | > 84.6 µM
CCOC(=O)C1N(S(=O)(=O)c2ccc(C)cc2)CCC12c1ccccc1N(C(C)=O)C2C(/C=C/C(=O)OC)=C/C(=O)OC (stereo not given) | > 100 µM
OCC1OC(n2cnc3cccnc32)CC1O (stereo not given) | > 100 µM

Please turn your attention to the following entry.
# input Name the reported TGI value associated with the compound Cc1cccc(NC(=O)C(=O)C2C(=O)NC(=O)NC2=O)c1C
# output > 100 µM

----------
tested on: MCF7 breast; assay: NCI tumour cell line growth inhibition, 48 h; in the data active means GI50 below about 0.43 µM; inactive means the rest
Respond using exactly one of the listed classes: 1 (yes) = active, 0 (no) = inactive

Consider the worked cases shown below.
C=C1CCC2C3(C)COC(c4ccc(NC(C)=O)cc4)OC3CCC2(C)C1C/C=C1/C(=O)OCC1O (centres undefined) | 0 (no)
C#CCN1C(=O)/C(=c2\sc3n(c2=O)C2C(NN=3)N(CC)C(=O)N2CC)c2ccccc21 (centres undefined) | 1 (yes)

# input Could you check what this test reported for Cc1ccc2c(c1)C(=O)c1c-2n(CCCN)c(=O)c2cc([N+](=O)[O-])ccc12 ?
# output 1 (yes)

# input Param item: Oc1ccc2oc3ncc(Cl)c(-c4ccccc4)c3c2c1
# output 0 (no)

----------
system: HCC-2998 colon; test: NCI tumour cell line growth inhibition, 48 h
Parameter: TGI. Scope: all listed entries.

Nc1nc2c(ncn2C2OC(CO)C(O)C2N)c(=O)[nH]1 (stereo not drawn) | > 100 µM
C/C(=N\NC(N)=O)C(CN1CCCCC1)C(c1ccccc1)c1c(O)c2ccccc2oc1=O (stereo not drawn) | > 100 µM

Please turn your attention to the following entry.
# input Name the reported TGI value associated with the compound Cc1nnc2cc(C(=O)O)c3ccccc3n2c1=O
# output > 10 µM

----------
tested on: U251 CNS; test: NCI tumour cell line growth inhibition, 48 h
REPORTED_ENDPOINT: TGI (µM)
# output: bare number, implied unit µM

Known TGI results, listed for orientation:
O=NC1c2cccc3cccc(c23)C1N=O (stereo not drawn) | 28.1
COc1ccc(/C=C/c2c(C(=O)/C=C/c3ccc(Cl)cc3)c(C)nc3ccccc23)cc1 | 3.55
Cc1c2c3cc(O)ccc3nc-2n(C)c2ccccc12 | 6.91

# input Name the reported TGI value associated with the compound CCCCC[C@@H]1OCO[C@@]2(C)/C=C(C)/C=C/C(=O)O[C@H]([C@@H](C)[C@@H](O)[C@H](C)[C@@]3(O)C[C@@H](O[C@H]4C[C@@H](O)[C@H](O)[C@@H](C)O4)[C@H](C)[C@@H](C)O3)[C@@H](OC)/C=C/C=C(\C)C[C@@H]1[C@@H]2O (stereo in doubt)
# output 5.36

----------
Parameter: TGI. Scope: all listed entries.
system: SNB-19 CNS; assay: NCI tumour cell line growth inhibition, 48 h

Known TGI results, listed for orientation:
C=C(C=O)C1CC(=O)C(C(=O)OC)[C@@H]2O[C@@](C)(CC2=O)C[C@@H]2OC(=O)[C@]3(O[C@@H]23)[C@@H](C(=O)OC)C1 (some centres not stated) | > 100 µM
N#CCCC1C(C#N)C2CC1C1C3C=CC(C3)C21 (configuration not stated) | > 100 µM
C/C(=C/CO[Si](C)(C)C(C)(C)C)C(=O)N(C)c1ccccc1I | 30.6 µM
COc1ccc(-c2oc(=O)ccc2C#Cc2cc(OC)c(OC)c(OC)c2)cc1O | > 100 µM
Cn1c2c([N+](=O)[O-])[se]nc2c(=O)n1-c1ccc([N+](=O)[O-])cc1 | 18.4 µM

# input Name the reported TGI value associated with the molecule O=C(c1ccc2ccccc2c1)C1S(=O)(=O)OCCOS1(=O)=O
# output > 100 µM

----------
tested on: SNB-75 CNS; experiment: NCI tumour cell line growth inhibition, 48 h
REPORTED_ENDPOINT: TGI

Cc1cc2ccccc2c[n+]1CC(O)C[n+]1cc2ccccc2cc1C | > 100 µM
COc1ccccc1/C=C\c1cnnc2ccccc12 | > 10 µM
CN(C)C[C@H]1CC[C@@H](CN(C)C)C1=O | > 28.7 µM
Cc1cccc(C(C)(C)C)c1NC(=O)/C(Cc1nc2ccc([N+](=O)[O-])cc2[nH]c1=O)=N/NC(=O)C[N+](C)(C)C | > 100 µM
O=C(O)C(CCc1ccccn1)c1ccccc1 (stereo not drawn) | > 100 µM
COc1ccc(/C=C/c2cc(O)cc(OC)c2)cc1 | > 100 µM

Please turn your attention to the following entry.
# input Name the reported TGI value associated with the compound COc1ccc(-c2nn(-c3cccc(Cl)c3)cc2C=C(C#N)C#N)cc1
# output 4.51 µM

----------
system: SF-539 CNS; assay: NCI tumour cell line growth inhibition, 48 h
REPORTED_ENDPOINT: TGI (µM)
# output: bare number, implied unit µM

Cc1cc(C)cc(-n2c3nc(=O)n(C)c(=O)c-3nc3ccccc32)c1 | 49.7

Please turn your attention to the following entry.
# input API: value(readout= TGI, system= SF-539 CNS, query= Cc1ccc2c(c1)C(=O)c1c-2n(CCCN)c(=O)c2cc([N+](=O)[O-])ccc12 )
# output 1.44

----------
tested on: MOLT-4 leukemia; test: NCI tumour cell line growth inhibition, 48 h; in the data active = GI50 below about 0.43 µM; inactive = the rest
Respond using exactly one of the listed classes: active, inactive

# input Could you check what this test reported for O=C(c1ccccc1Nc1ccnc(C(F)(F)F)c1)N1CCN(c2cccc(Cl)c2)CC1 ?
# output inactive

----------
Parameter: TGI. Scope: all listed entries.
system: HCT-116 colon; test: NCI tumour cell line growth inhibition, 48 h
# output: bare number, implied unit µM

Cc1ccc(Cl)cc1Nc1nc(C(F)(F)F)ccc1C(=O)Nc1cccc(C(F)(F)F)c1 | 10.3
COc1ccc(-c2ccc(/C=C/C(=O)NO)cc2)cc1 | 11.4
COc1cc2cc(C(=O)N3CC(CCl)c4c3cc(N)c3ccccc43)[nH]c2cc1OCCN(C)C (centres undefined) | 0.623

# input Name the reported TGI value associated with the compound COc1ccc(SC2c3cc(OC)c(OC)cc3Oc3nc(N)c(C#N)c(N)c32)cc1 (centres undefined)
# output 2.16

----------
test system: OVCAR-3 ovarian; experiment: NCI tumour cell line growth inhibition, 48 h
REPORTED_ENDPOINT: TGI (µM)
# output: bare number, implied unit µM

Known TGI results, listed for orientation:
O=C(c1ccccc1)c1c(C(F)(F)F)n([O-])c2ccccc2[n+]1=O | 1.41
CCSc1oc(-c2ccccc2)nc1[P+](c1ccccc1)(c1ccccc1)c1ccccc1 | 1.7
S=c1nc(-c2ccccc2)oc(=NC2CCCCC2)n1C1CCCCC1 | 11.3
COc1cc(C2C3=C(CCC3=O)Oc3cc4c(cc32)OCO4)cc(OC)c1OC (configuration not stated) | 0.381
CCN(CC)CCO/N=C1\CC[C@H]2[C@@H]3CC=C4C[C@@H](O)CC[C@]4(C)[C@H]3CC[C@]12C | 43.8

# input Name the reported TGI value associated with the molecule COc1ccc(/C(C)=C(\c2ccc(Cl)cc2)c2ccc(OCCN3CCCC3)cc2)cc1
# output 9.79

# input Param item: COC(=O)C[CH](C(=O)OC)[Ge]([CH3])([CH3])[S]c1ccccc1 (configuration not stated)
# output 38.8

# input Param item: CC(=O)O[C@H]1C#C/C=C\C#CC[C@@H]2C(=O)N(C(=O)OC(C)(C)C)[C@@H]12
# output 98.3

----------
system: LXFL 529 NSCLC; experiment: NCI tumour cell line growth inhibition, 48 h
REPORTED_ENDPOINT: TGI

Known TGI results, listed for orientation:
COC(=O)C1=C(OC)c2cc3c(cc2C(c2cc(OC)c(OC)c(OC)c2)C1C(=O)OC)OCO3 (configuration not stated) | > 100 µM
Cc1nc(C)c(C(=O)Nc2cccc3c2C(=O)NC3=O)cc1C(=O)Nc1cccc2c1C(=O)NC2=O | > 100 µM
C=CN1C(=O)OC(c2ccccc2)C1c1ccccc1 (configuration not stated) | > 100 µM
Cc1csc2c1C(=O)c1ccsc1C2=O | 13.3 µM
Cn1c2c([N+](=O)[O-])[se]nc2c(=O)n1-c1ccc([N+](=O)[O-])cc1 | 2.5 µM
COc1ccc(/C=C2\Cc3ccccc3C2=O)cc1OC | > 100 µM
N/C(=N\NS(=O)(=O)c1ccccc1)Oc1ccc(Cl)cc1 | > 100 µM
Cc1ccc2nc3c(C)c(Cl)c(=O)cc-3sc2c1 | > 100 µM

# input API: value(readout= TGI, system= LXFL 529 NSCLC, query= O=C(c1cc(O)ccc1O)c1ccccc1C(Cl)(Cl)Cl )
# output > 100 µM

# input Param item: CC1(O)C=CC2CCC1C2O (configuration not stated)
# output > 100 µM

# input Param item: CC1=NNC(=NCCN(C)C)C/C1=C/c1ccccc1Cl
# output > 100 µM

# input Param item: O=C(N/N=C(/c1nc2ccc(Cl)cc2[nH]c1=O)C(O)c1ccc(Cl)cc1Cl)c1ccncc1 (configuration not stated)
# output > 100 µM
